- Tested on: PANC-10-05 (Pancreatic Carcinoma)
- test details: Bliss excess, mean over the matrix (fraction); higher = more synergy;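 also: after 72 h of two-drug dosing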
Kindly state Bliss excess for each of the entries shown.
// no unit string in output, number only

Give recorded Bliss excess with PANC-10-05 (Pancreatic Carcinoma) for the following compound: CCN(CCO)CCCOc1ccc2c(Nc3cc(CC(=O)Nc4cccc(F)c4)[nH]n3)ncnc2c1 [AZD2811] + C[C@@H]1COCCN1C2=NC(=NC(=C2)C3(CC3)[S@](=N)(=O)C)C4=C5C=CNC5=NC=C4 [AZD6738] (first compound max 1 µM, 7x7, partner max 10 µM)
-0.0793

Write down the reported Bliss excess of O=C(c1cc(Cc2n[nH]c(=O)c3ccccc23)ccc1F)N1CCN(C(=O)C2CC2)CC1 [Olaparib] + COc1nnc2ccc(N3CCC(c4ccc(OCCN5CCN(C)C(=O)[C@H]5C)cc4)CC3)nn12 [AZD5153] (first compound max 10 µM, 7x7, partner max 1 µM) , test system: PANC-10-05 (Pancreatic Carcinoma).
-0.0072

Form field - read-out: Bliss excess; system: PANC-10-05 (Pancreatic Carcinoma); submitted item: CN(CCO)CC[C@H](CSc1ccccc1)Nc1ccc(S(=O)(=O)NC(=O)c2ccc(N3CCC([C@@H](O)c4ccccc4-c4ccc(Cl)cc4)CC3)cc2)cc1S(=O)(=O)C(F)(F)F [AZD4320] + CCN(CCO)CCCOc1ccc2c(Nc3cc(CC(=O)Nc4cccc(F)c4)[nH]n3)ncnc2c1 [AZD2811] (first compound max 1 µM, 7x7, partner max 1 µM)
-0.0758

Tell me reported Bliss excess for C=CCn1c(=O)c2cnc(Nc3ccc(N4CCN(C)CC4)cc3)nc2n1-c1cccc(C(C)(C)O)n1 [AZD1775] + C1CN(CCC1(C(=O)N[C@@H](CCO)C2=CC=C(C=C2)Cl)N)C3=NC=NC4=C3C=CN4 [Capivasertib] (first compound max 3 µM, partner max 3 µM) , tested with PANC-10-05 (Pancreatic Carcinoma).
-0.102

PANC-10-05 (Pancreatic Carcinoma) / Bliss excess / CN(C)CCCOc1ccc(-c2ccc3ncc4c(c3c2)n(C2CCOCC2)c(=O)n4C)cn1 [AZD0156] + CCN(CCO)CCCOc1ccc2c(Nc3cc(CC(=O)Nc4cccc(F)c4)[nH]n3)ncnc2c1 [AZD2811] (first compound max 1 µM, 7x7, partner max 1 µM) : value?
-0.0169

Report Bliss excess for CN(CCO)CC[C@H](CSc1ccccc1)Nc1ccc(S(=O)(=O)NC(=O)c2ccc(N3CCC([C@@H](O)c4ccccc4-c4ccc(Cl)cc4)CC3)cc2)cc1S(=O)(=O)C(F)(F)F [AZD4320] + CN(C)CCCOc1ccc(-c2ccc3ncc4c(c3c2)n(C2CCOCC2)c(=O)n4C)cn1 [AZD0156] (first compound max 1 µM, 7x7, partner max 1 µM) tested on PANC-10-05 (Pancreatic Carcinoma).
-0.0489

Notebook entry, PANC-10-05 (Pancreatic Carcinoma) assay: Bliss excess of NC1(C(=O)N[C@@H](CCO)c2ccc(Cl)cc2)CCN(c2ncnc3[nH]ccc23)CC1 [Capivasertib] + Cn1cnc2c(F)c(Nc3ccc(Br)cc3Cl)c(C(=O)NOCCO)cc21 [Selumetinib] (first compound max 10 µM, 7x7, partner max 10 µM) = ?
0.0147

---

- Tested on: GI-ME-N (Neuroblastoma)
- test details: Bliss excess, mean over the matrix (fraction); higher = more synergy
Give Bliss excess for every item shown.

Look at this compound and give its reported Bliss excess. CCN(CCO)CCCOc1ccc2c(Nc3cc(CC(=O)Nc4cccc(F)c4)[nH]n3)ncnc2c1 [AZD2811] + C=CCn1c(=O)c2cnc(Nc3ccc(N4CCN(C)CC4)cc3)nc2n1-c1cccc(C(C)(C)O)n1 [AZD1775] (first compound max 1 µM, partner max 1 µM)
-0.0112

Tell me the measured Bliss excess of CC1(C)CCC(CN2CCN(c3ccc(C(=O)NS(=O)(=O)c4ccc(NCC5CCOCC5)c([N+](=O)[O-])c4)c(Oc4cnc5[nH]ccc5c4)c3)CC2)=C(c2ccc(Cl)cc2)C1 [Venetoclax] + Cc1cc2ncnn2cc1Nc1ncc2c(n1)n(C1CCOCC1)c(=O)n2C [AZD7648] (first compound max 1 µM, 7x7, partner max 10 µM) , please.
-0.0235

Any idea what Bliss excess was measured for NC1(C(=O)N[C@@H](CCO)c2ccc(Cl)cc2)CCN(c2ncnc3[nH]ccc23)CC1 [Capivasertib] + CCN(CCO)CCCOc1ccc2c(Nc3cc(CC(=O)Nc4cccc(F)c4)[nH]n3)ncnc2c1 [AZD2811] (first compound max 10 µM, 7x7, partner max 1 µM) ?
-0.0557

Entry CN(C)CCCOc1ccc(-c2ccc3ncc4c(c3c2)n(C2CCOCC2)c(=O)n4C)cn1 [AZD0156] + CCN(CCO)CCCOc1ccc2c(Nc3cc(CC(=O)Nc4cccc(F)c4)[nH]n3)ncnc2c1 [AZD2811] (first compound max 1 µM, 7x7, partner max 1 µM) : reported Bliss excess = ?
-0.0488

Which Bliss excess reading was recorded for the compound COc1cccc(OCCCN)c1-c1cc(Nc2cnc(C#N)cn2)n[nH]1 [Prexasertib] + CN(C)CCCOc1ccc(-c2ccc3ncc4c(c3c2)n(C2CCOCC2)c(=O)n4C)cn1 [AZD0156] (first compound max 1 µM, 7x7, partner max 1 µM) ?
0.0737

Reported Bliss excess for COc1nnc2ccc(N3CCC(c4ccc(OCCN5CCN(C)C(=O)[C@H]5C)cc4)CC3)nn12 [AZD5153] + CN(CC[C@H](CSC1=CC=CC=C1)NC2=C(C=C(C=C2)S(=O)(=O)NC(=O)C3=CC=C(C=C3)N4CCC(CC4)[C@H](C5=CC=CC=C5C6=CC=C(C=C6)Cl)O)S(=O)(=O)C(F)(F)F)CCO [AZD4320] (first compound max 1 µM, 7x7, partner max 1 µM) : what is it?
0.0077

# query: Bliss excess of entry Cc1c2c(nn1C)CSCc1cc(n(C)n1)CSc1cc(c3ccccc3c1)OCCCc1c(C(=O)O)n(C)c3c-2c(Cl)ccc13 [AZD5991] + Cc1cc2ncnn2cc1Nc1ncc2c(n1)n(C1CCOCC1)c(=O)n2C [AZD7648] (first compound max 1 µM, 7x7, partner max 10 µM)
-0.0863
